Tested on: human acute T lymphoblastic leukemia CCRF-CEM cell lines
Experiment: Cell growth inhibition 1 (CellTiter-Glo)
Format: cell-based
Conditions: culture with test compound 72 hours
# maps each entry to its pIC50
Hey, just a heads up that pIC50 is the negative log base 10 of the concentration in molar.

Note down pIC50 recorded for Nc1ncnc2c1c(C#Cc1cccc3c1S(=O)(=O)CCC3)cn2[C@@H]1C[C@H](CNS(N)(=O)=O)[C@@H](O)[C@H]1O [Reference Example 123]
7.01

Please supply the value of reported pIC50 for the item CN1CCOc2c1ccc(F)c2C#Cc1cn([C@@H]2O[C@H](CNS(N)(=O)=O)[C@@H](O)[C@H]2O)c2ncnc(N)c12 [Reference Example 64]
8.24

Using known records, supply pIC50 for CNc1cc(F)c(C#Cc2cn([C@@H]3O[C@H](CNS(N)(=O)=O)[C@@H](O)[C@H]3O)c3ncnc(N)c23)c(F)c1 [Reference Example 25]
8.77

Annotate the molecule CCCOc1cccc(F)c1C#Cc1cn([C@@H]2O[C@H](CNS(N)(=O)=O)[C@@H](O)[C@H]2O)c2ncnc(N)c12 [Reference Example 60] with its measured pIC50.
8.29

Fill in pIC50 for record NS(=O)(=O)OC[C@@H]1C[C@@H](n2ccc3c(N[C@H]4CCc5ccccc54)ncnc32)CC1O (stereo partly shown) [Comp. Example]
7.05

Please give the documented pIC50 of CCOc1cc(N2CCOCC2)cc(F)c1C#Cc1cn([C@@H]2O[C@H](CNS(N)(=O)=O)[C@@H](O)[C@H]2O)c2ncnc(N)c12 [Reference Example 34]
8.21

###

Recorded pIC50 for the following molecules
System: human acute T lymphoblastic leukemia CCRF-CEM cell lines
Assay: Cell growth inhibition 1 (CellTiter-Glo)
Assay type: cell-based
Conditions: culture with test compound 72 hours
pIC50 is defined as minus the log10 of a concentration measured in mol/L.

Consider the following illustrative entries.
| molecule | property_measured | recorded_value |
| --- | --- | --- |
| CCS(=O)(=O)c1cc(N2CCCC2)cc(F)c1C#Cc1cn([C@@H]2O[C@H](CNS(N)(=O)=O)[C@@H](O)[C@H]2O)c2ncnc(N)c12 [Reference Example 70] | pIC50 | 7.82 |
| Nc1ncnc2c1c(C#Cc1c(F)cc(NCCO)cc1F)cn2[C@@H]1O[C@H](CNS(N)(=O)=O)[C@@H](O)[C@H]1O [Reference Example 32] | pIC50 | 5.60 |

Proceeding to the next molecule to report its pIC50.
Respond only with pIC50 recorded for N#Cc1cccc(F)c1C#Cc1cn([C@@H]2O[C@H](CNS(N)(=O)=O)[C@@H](O)[C@H]2O)c2ncnc(N)c12 [Reference Example 85]
7.42

###

System: human osteo- and soft tissue sarcoma SJCRH30 cell line
Test: Cell growth inhibition 2, SJCRH30
Type: cell-based
property_measured: IC50 (nM)
Report as a plain number; the unit nM is understood.

Example molecules with recorded IC50:
| molecule | IC50 / nM |
| --- | --- |
| CN1CCOc2c1ccc(F)c2C#Cc1cn([C@@H]2O[C@H](CNS(N)(=O)=O)[C@@H](O)[C@H]2O)c2ncnc(N)c12 [Reference Example 64] | 560 |
| Nc1ncnc2c1c(C#Cc1c(F)cc(N3CC[C@@H](F)C3)cc1F)cn2[C@@H]1O[C@H](CNS(N)(=O)=O)[C@@H](O)[C@H]1O [Reference Example 29] | 6600 |
| CNc1cc(F)c(C#Cc2cn([C@@H]3O[C@H](CNS(N)(=O)=O)[C@@H](O)[C@H]3O)c3ncnc(N)c23)c(F)c1 [Reference Example 25] | 5100 |
| CSc1cccc(F)c1C#Cc1cn([C@@H]2C=C(CNS(N)(=O)=O)[C@@H](O)[C@H]2O)c2ncnc(N)c12 [Reference Example 130] | 170 |

Pending molecule:
Identify the reported IC50 for the following entry. CN1CCOc2c1ccc(F)c2C#Cc1cn([C@@H]2C[C@H](CNS(N)(=O)=O)[C@@H](O)[C@H]2O)c2ncnc(N)c12 [Reference Example 122]
130
